The origin of these recorded values is PubChem BioAssay.

PROTOCOL: small molecules captured by biotinylated probe aFST – biochemical, small-molecule microarray, fluorescence 635/667, stem cell growth factor project, primary screen (AID 1086);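 further: score merges 667 nm fluorescence with signal-to-noise of each printed compound spot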
PROTOCOL CONDITIONS: higher = more signal
# thresholds on composite z-score define classes: bottom end (below -0.5), midrange (-0.5 to below 0.2), top end (0.2 or more)

Pick a category. Item: COCC(=C=CC[C@H](O)c1cccc(OCCO)c1)CCO
top end

Pick a category. Item: O=C1C2C=CC(C(O)c3cc(C(F)(F)F)cc(C(F)(F)F)c3)N(Nc3ccccc3)C2C(=O)N1c1ccccc1 (configuration not stated)
top end

Pick a category. Item: CC(C)Cc1ccc(CN2CC[C@@H](N)C2)cc1
bottom end

Pick a category. Item: OCCCC1=CC(C2CC2)N(Cc2cccc(OC(F)(F)F)c2)CC1 (configuration not stated)
bottom end

Pick a category. Item: O=C1OCCC=C[C@H]2OC34C=CCN(c5ccc(Cl)cc5)C(=O)[C@H]3N(CCCO)C(=O)[C@@H]4C12 (some centres not stated)
midrange

Pick a category. Item: O=C1[C@H]2C=C(I)[C@H](C[C@@H]2OCCCCO)[C@@]12CO2
midrange

Pick a category. Item: Cc1ccc(S[C@]2(C(=O)O)CC(=O)N(Cc3ccccc3C(F)(F)F)[C@@H]2c2ccc(CO)cc2I)cc1
midrange

Pick a category. Item: O=C(CS)NCCCCCNC(=O)[C@@H]1C[C@@H]2C(=O)NCC(=O)N2[C@@H]1c1cccc(OCCO)c1
midrange

Pick a category. Item: COC(=O)[C@H](Cc1ccccc1)N[C@H](/C=C/C1CC1)[C@@H](O)Cc1ccccc1
midrange

Pick a category. Item: OB1C=CCC(CCc2ccccc2)O1 (configuration not stated)
midrange

Pick a category. Item: CC[C@@H]1C=C(C(=O)O)[C@H](c2cccc3ccccc23)N1S(=O)(=O)c1ccc(C)cc1
top end

Pick a category. Item: COCCOC(=O)N1C(=O)[C@@]2(c3cc(C#CC4=CCCCC4)ccc31)[C@H](C(N)=O)[C@H]1C(=O)O[C@H](c3ccccc3)[C@H](c3ccccc3)N1[C@@H]2c1ccc(O)cc1
top end

Pick a category. Item: C[C@H]1C2[C@H](Cc3ccccc3)NC(=O)[C@]23C(=O)NCC(=O)N2CCC[C@H]2C(=O)NC/C=C/CCC/C=C/C3[C@@H]2O[C@]12C (some centres not stated)
bottom end

Pick a category. Item: CCCC1(C(=O)OC)C=C2C(=C(c3ccccc3)C(=O)C2C)CN1 (configuration not stated)
top end

Pick a category. Item: O=C(CS)NCCCCCNC(=O)[C@H]1C[C@H]2C(=O)NCC(=O)N2[C@H]1c1ccc(O)cc1
bottom end

Pick a category. Item: COC(=O)[C@@]1(Cc2ccc(OC)cc2)[C@H]2c3cc(C(=O)N4CCCC4)n(CCCNc4ncc(C(F)(F)F)cc4Cl)c3C[C@H]2CN1C(=O)c1ccccc1
top end

Pick a category. Item: CCCCCN1CC=CC23O[C@@H]4C=CCOC(=O)[C@@H]4[C@H]2C(=O)N(C(C)CO)[C@@H]3C1=O (some centres not stated)
bottom end

---

PROTOCOL: compound effects on hepatocellular carcinoma cell viability – HepG2, calcein-AM fluorescence, 48 h, basal, profiling panel (AID 1164); further: test concentration not given here
PROTOCOL CONDITIONS: higher = more signal
ENDPOINT: z-score
Number only, please.

Field z-score (entry COC(=O)[C@@]1(CCC(=O)OC(C)(C)C)N=C(c2ccc(OCCCO)cc2)O[C@H]1c1ccccc1 ) reads -0.968

Field z-score (entry O=c1cccc(-c2ccccc2Cl)o1 ) reads 0.614

Field z-score (entry C=C(/C(=C/C[C@H](OC(C)=O)c1ccc(OCCO)cc1)c1cc(C(=O)OC)ccc1OC)C(C)C ) reads 0.861

Field z-score (entry COCCCNC(=O)[C@@]1(Cc2ccccc2)N=C(c2ccc(OCCCO)cc2)O[C@H]1c1ccccc1CN=[N+]=[N-] ) reads 0.941

Field z-score (entry C=CCN1C(=O)[C@]2(O[C@H](CCO)[C@@H]([Si](C)(C)c3ccc(OC)cc3)[C@@H]2C)c2cc(N(C=O)c3ccccc3)ccc21 ) reads -4.8

Field z-score (entry O=C(O)[C@@]1(CCS(=O)(=O)c2ccccc2)N=C(c2ccc(OCCCO)cc2)O[C@H]1c1ccccc1 ) reads -0.258

Field z-score (entry COCC(=C=CC[C@@H](O)c1ccc(OCCO)cc1)C[C@@H](O)c1ccccn1 ) reads -0.239

Field z-score (entry COc1ccc([Si](C)(C)[C@@H]2[C@@H](CC(=O)N3Cc4ccccc4C[C@H]3CO)O[C@]3(C(=O)N(Cc4cccc(N5CCC5=O)c4)c4ccccc43)[C@H]2C)cc1 ) reads -0.16

Field z-score (entry CCCCC(=C=CC[C@@H](O)c1cccc(OCCO)c1)C[C@@H](O)c1ccccn1 ) reads 0.175

Field z-score (entry O=C1OCCC=C[C@H]2OC34C=CCN(Cn5nnc6ccccc65)C(=O)[C@H]3N(CCO)C(=O)[C@@H]4C12 (stereo partly specified) ) reads -0.556

Field z-score (entry CS(=O)(=O)CCOC(=O)C1=CC(CCCO)=CC(C2CC2)N(Cc2cc3c(cc2Br)OCO3)C=C1C(=O)OCCS(C)(=O)=O (stereo unspecified) ) reads 0.862

Field z-score (entry COCCCNC(=O)[C@@]1(CCS(=O)(=O)c2ccccc2)N=C(c2ccc(OCCCO)cc2)O[C@H]1c1ccccc1N=[N+]=[N-] ) reads -0.43

Field z-score (entry [N-]=[N+]=NCc1ccccc1[C@@H]1OC(c2ccc(OCCCO)cc2)=N[C@]1(CCS(=O)(=O)c1ccccc1)C(=O)N1CCOCC1 ) reads 0.502

Field z-score (entry COC(=O)[C@]1(Cc2ccccc2)N=C(c2ccc(OCCCO)cc2)O[C@@H]1c1ccccc1N=[N+]=[N-] ) reads -5.44

Field z-score (entry COc1ccc(NC(=O)O[C@H]2[C@H](OC(=O)c3cc4ccccc4[nH]3)[C@@H](OC(=O)c3cc4ccccc4[nH]3)[C@@H](OC)O[C@@H]2CO)cc1 ) reads 0.825

Field z-score (entry CC(C)[Si](C#CCCCC#N)(O[C@H](c1ccccc1)c1cn(Cc2cccc(Cl)c2)nn1)C(C)C ) reads -0.626

Field z-score (entry O=C1NC(=O)C2C1C=CC(C(O)C1CC=CCC1)N2Nc1ccccn1 (stereo unspecified) ) reads 1.06

Field z-score (entry NCCCCCCNC(=O)[C@H]1C[C@H]2C(=O)N[C@@H](Cc3ccccc3)C(=O)N2[C@H]1c1cccc(OCCO)c1 ) reads -0.378

Field z-score (entry COC(=O)[C@@]1(Cc2ccccc2)[C@H]2c3cc(C(=O)N4CCCC4)n(Cc4ccc(O)c(OC)c4)c3C[C@H]2CN1C(=O)c1ccccc1 ) reads 0.876

Field z-score (entry CN(C)CCCCCCNC(=O)[C@@H]1C[C@@H]2C(=O)N3CCC[C@H]3C(=O)N2[C@@H]1c1ccc(O)cc1 ) reads 0.773

Field z-score (entry C[N+](C)(C)CCCC[C@@H]1NC(=O)[C@@H]2C[C@H](C(=O)NCCCCCCNC(=O)CS)[C@H](c3ccc(O)cc3)N2C1=O ) reads -0.0675

Field z-score (entry COCCOC(=O)N1C(=O)[C@@]2(c3ccccc31)[C@H](C(=O)N1CCc3cc(OC)c(OC)cc3C1)[C@H]1C(=O)O[C@H](c3ccccc3)[C@H](c3ccccc3)N1[C@@H]2c1ccc(O)cc1 ) reads 1.76

Field z-score (entry O=C1NC(=O)C2C1C=CC(C(O)c1ccc(-c3ccccc3)s1)N2Nc1ccc(Cl)cc1Cl (stereo unspecified) ) reads -2.13

Field z-score (entry CCOC(=O)C1=C[C@@H](C(C)C)N(S(=O)(=O)c2ccc(C)cc2)[C@H]1c1ccccc1F ) reads -0.972

Field z-score (entry C=C[C@H](C)[C@@H](OC(=O)Nc1ccc(SC)cc1)c1ccc(O)c2ccccc12 ) reads -1.87

Field z-score (entry O=C1O[C@H](c2ccccc2)[C@H](c2ccccc2)N2[C@H]1[C@@H](C(=O)N1CCN(c3ncccn3)CC1)[C@]1(C(=O)Nc3ccc(C#CC4=CCCCC4)cc31)[C@H]2c1ccccc1OCCO ) reads -0.769

---

PROTOCOL: ATP-based viability of Huh7 replicon cells – cell-based, CellTiter-Glo luminescence, basal, 48 h, cytotoxicity control for HCV replication inhibitor project, primary screen (AID 1143);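 further: Huh7 hepatoma cells carrying a hepatitis C replication reporter with no stimulus; test concentration not given here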
PROTOCOL CONDITIONS: higher = more signal, called active from +8 up or from −8 down
Give measured z-score for each item. Keep answers brief.
Number only, please.

Field z-score (entry COCCOC(=O)N1C(=O)[C@@]2(c3cc(C#Cc4ccc(OC)cc4)ccc31)[C@H](c1ccc(O)cc1)N1[C@H](c3ccccc3)[C@H](c3ccccc3)OC(=O)[C@H]1[C@@H]2C(=O)Nc1nc2ccccc2s1 ) reads -1.07

Field z-score (entry Cc1ccc(S[C@]2(C(=O)NCC(C)C)CC(=O)N(Cc3cc(C(F)(F)F)cc(C(F)(F)F)c3)[C@@H]2c2ccc(CO)cc2)cc1 ) reads 0.52

Field z-score (entry C=CCN1C(=O)[C@]2(O[C@H](CCO)[C@@H]([Si](C)(C)c3ccc(OC)cc3)[C@@H]2C)c2cc(N(C=O)c3ccccc3)ccc21 ) reads -7.67

Field z-score (entry C#CCN1[C@@H](Cc2ccc(O)cc2)C(=O)O[C@H](Cc2ccccc2)[C@@H]1/C=C/C1CC1 ) reads -4.07

Field z-score (entry Cc1ccc(C2C3C(=O)CC4C(=O)N(c5ccccc5)C(=O)C4C3CN2S(=O)(=O)c2ccc(C)cc2)cc1 (stereo not given) ) reads -0.966

Field z-score (entry CC(C)(C)OC(=O)CC[C@]1(C(N)=O)N=C(c2ccc(OCCCO)cc2)O[C@H]1c1ccccc1 ) reads -0.408

Field z-score (entry NCCCCCNC(=O)[C@H]1C[C@H]2C(=O)N[C@@H](Cc3ccccc3)C(=O)N2[C@H]1c1cccc(OCCO)c1 ) reads -0.535

Field z-score (entry OCCCC1=CC(C2CC2)N(Cc2cccc(OC(F)(F)F)c2)CC1 (stereo not given) ) reads -0.28

Field z-score (entry CCCC=C(CCC)[C@@H](NC(=O)OCC(C)C)c1ccccc1 ) reads -3.28

Field z-score (entry CCOC(=O)C1=CCC(c2ccc(F)cc2)N(S(=O)(=O)c2ccc(C)cc2)C1 (stereo not given) ) reads -2.8

Field z-score (entry COc1ccccc1CN1C(=O)c2ccccc2[C@@]2(Cc3ccccc3N(CCCN(C)C)C2=O)[C@@H]1c1ccc(CO)cc1 ) reads -4.71

Field z-score (entry C=C(CCCC)C(=O)CC[C@H](OC(=O)c1cccnc1)c1ccc(OCCO)cc1 ) reads -2.23

Field z-score (entry COc1cc(CO)cc(I)c1O[C@H]1C=C(C(=O)NCCO)C[C@@H](NC[C@@H]2CCCO2)[C@@H]1O ) reads 0.102

Field z-score (entry C=CC[C@]12N=C(c3ccc(OCCCO)cc3)O[C@H]1c1ccccc1N(CCS(=O)(=O)c1ccccc1)C2=O ) reads -3.24

Field z-score (entry C=C(CCCC)/C(=C/C[C@H](OC(=O)c1ccncc1)c1ccc(OCCO)cc1)c1cc(C(=O)OC)ccc1OC ) reads -4.81
